These data points were gathered from PubChem BioAssay.

# Method summary: drug combination growth inhibition, ovarian cancer – cell-based, oncology-focused library, rucaparib conditional, profiling panel (AID 1508598)
# Run conditions: patient-derived ovarian cancer cells, CellTiter-Glo viability, 144 h; at 1.25 µM; OCI-C5x cells; with rucaparib 10 µM; 100% = cells with rucaparib alone
Calls of active or inactive are those of the source.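 The calls were made as follows: active = normalized viability below 100% at a tested concentration; inactive = the rest.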
# valid calls are 1 (yes) (active), 0 (no) (inactive); nothing else

Compound	Label
CO[C@H]1C[C@@H]2CC[C@@H](C)[C@@](O)(O2)C(=O)C(=O)N2CCCC[C@H]2C(=O)O[C@H]([C@H](C)C[C@@H]2CC[C@@H](O)[C@H](OC)C2)CC(=O)[C@H](C)/C=C(\C)[C@@H](O)[C@H](OC)C(=O)[C@H](C)C[C@H](C)/C=C/C=C/C=C/1C	0 (no)

Q: I'd appreciate the recorded outcome for COc1cc([C@H]2c3cc4c(cc3[C@@H](O[C@@H]3O[C@@H]5CO[C@@H](C)O[C@H]5[C@H](O)[C@@H]3O)[C@H]3COC(=O)[C@H]23)OCO4)cc(OC)c1O from this test.
Ans: 1 (yes)

Q: Per the records of this test, what outcome belongs to C[C@@]12CC[C@H]3c4ccc(O)cc4C[C@@H](CCCCCCCCCS(=O)CCCC(F)(F)C(F)(F)F)[C@H]3[C@@H]1CC[C@@H]2O (stereo partly specified) ?
Ans: 0 (no)

Q: # lookup: test call for CC[C@]1(O)C[C@@H]2CN(CCc3c([nH]c4ccccc34)[C@@](C(=O)OC)(c3cc4c(cc3OC)N(C=O)[C@H]3[C@@](O)(C(=O)OC)[C@H](OC(C)=O)[C@]5(CC)C=CCN6CC[C@@]43[C@@H]65)C2)C1
Ans: 1 (yes)

Q: Hey, what did the test say about O=C(/C=C/c1ccc2ccccc2n1)c1ccncc1 ?
Ans: 0 (no)

Q: Check the results log: what was the call for CCNC(=O)c1noc(-c2cc(Cl)c(O)cc2O)c1-c1ccc(OC)cc1 ?
Ans: 1 (yes)
